# System: KASUMI-9;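 also: ALL cell lines in 384-well plates, five doses spanning 10,000-fold, each plate scaled between vehicle and 100 µmol/L benzalkonium chloride controls, sDSS an adapted area-under-curve metric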
# Test Method Notes: selective drug sensitivity score (sDSS, relative to normal bone marrow) (sDSS (score)); higher = more potent and effective on the cell line relative to normal bone marrow cells
# Experimental Parameters: 72 h
Provide the reported selective drug sensitivity score of each item.
Give bare numbers.

Below are worked cases with known answers.
1. O=C(Nc1cnn2ccc(N3CCC[C@@H]3c3cc(F)ccc3F)nc12)N1CC[C@H](O)C1 [Larotrectinib] (top concentration 1000 nM); 0.98
2. O=C1CCc2c(Oc3ccc4c(c3)[C@@H]3[C@H](O4)[C@H]3c3nc4cc(C(F)(F)F)ccc4[nH]3)ccnc2N1 [Lifirafenib (BGB-283)] (top concentration 10000 nM); 5.58
3. Nc1cc(C(F)(F)F)c(-c2cc(N3CCOCC3)nc(N3CCOCC3)n2)cn1 [Buparlisib] (top concentration 10000 nM); 6.58
4. CCS(=O)(=O)Nc1ccc(Oc2ccc(F)cc2F)c(-c2cn(C)c(=O)c3[nH]ccc23)c1 [Mivebresib] (top concentration 10000 nM); 17.4
5. O=C(CCCCCCNC(=O)c1cnc(N(c2ccccc2)c2ccccc2)nc1)NO [Rocilinostat] (top concentration 10000 nM); 6.64

Batch request: selective drug sensitivity score for each of the following compounds.
1. CC(=O)O[C@H]1C(=O)[C@@]2(C)[C@H]([C@H](OC(=O)c3ccccc3)[C@]3(O)C[C@H](OC(=O)[C@H](O)[C@@H](NC(=O)c4ccccc4)c4ccccc4)C(C)=C1C3(C)C)[C@]1(OC(C)=O)CO[C@@H]1C[C@@H]2O [Paclitaxel] (top concentration 1000 nM)
2. CC(C)[C@H]1C(=O)N[C@@H](CCCNC(=N)N)C(=O)NCC(=O)N[C@@H](CC(=O)O)C(=O)N[C@H](Cc2ccccc2)C(=O)N1C [Cilengitide] (top concentration 10000 nM)
3. CC[C@@H]1CN(C(=O)NCC(F)(F)F)C[C@@H]1c1cnc2cnc3[nH]ccc3n12 [Upadacitinib] (top concentration 10000 nM)
4. CNC(=O)c1ccc(N2C(=S)N(c3cnc(C#N)c(C(F)(F)F)c3)C(=O)C23CCC3)cc1F [Apalutamide] (top concentration 10000 nM)
5. Clc1ccccc1C(c1ccccc1)(c1ccccc1)n1cccn1 [TRAM-34] (top concentration 1000 nM)
6. CCC1(c2ccc(N)cc2)CCC(=O)NC1=O (configuration not stated) [Aminoglutethimide] (top concentration 10000 nM)

1. 19.6
2. 0
3. -2.76
4. 0
5. 2.52
6. 0.6

If you can, please state the reported selective drug sensitivity score value of CN1CC[C@@H](NC(=O)Nc2ccc(C#N)cc2)C[C@@H]1c1nc2ccccc2[nH]1 [Glasdegib] (top concentration 1000 nM) .
0
